Value source: patent US20180244611A1

Each record here notes measured EC50.
biological target: F508delCFTR (Homo sapiens, UniProt P13569, DEL508-508); construct: expressed in transfected cells; host or cells: CFBE41o- human lung-derived epithelial cells (CFBE41o-F508delCFTR-HRP), doxycycline-inducible; test: Cell Surface Expression-Horse Radish Peroxidase (CSE-HRP) assay, test compound with co-corrector; format: cell-based; conditions: with 2 μM co-corrector
Sequence (P13569 with tags, fused parts or gaps DEL508-508): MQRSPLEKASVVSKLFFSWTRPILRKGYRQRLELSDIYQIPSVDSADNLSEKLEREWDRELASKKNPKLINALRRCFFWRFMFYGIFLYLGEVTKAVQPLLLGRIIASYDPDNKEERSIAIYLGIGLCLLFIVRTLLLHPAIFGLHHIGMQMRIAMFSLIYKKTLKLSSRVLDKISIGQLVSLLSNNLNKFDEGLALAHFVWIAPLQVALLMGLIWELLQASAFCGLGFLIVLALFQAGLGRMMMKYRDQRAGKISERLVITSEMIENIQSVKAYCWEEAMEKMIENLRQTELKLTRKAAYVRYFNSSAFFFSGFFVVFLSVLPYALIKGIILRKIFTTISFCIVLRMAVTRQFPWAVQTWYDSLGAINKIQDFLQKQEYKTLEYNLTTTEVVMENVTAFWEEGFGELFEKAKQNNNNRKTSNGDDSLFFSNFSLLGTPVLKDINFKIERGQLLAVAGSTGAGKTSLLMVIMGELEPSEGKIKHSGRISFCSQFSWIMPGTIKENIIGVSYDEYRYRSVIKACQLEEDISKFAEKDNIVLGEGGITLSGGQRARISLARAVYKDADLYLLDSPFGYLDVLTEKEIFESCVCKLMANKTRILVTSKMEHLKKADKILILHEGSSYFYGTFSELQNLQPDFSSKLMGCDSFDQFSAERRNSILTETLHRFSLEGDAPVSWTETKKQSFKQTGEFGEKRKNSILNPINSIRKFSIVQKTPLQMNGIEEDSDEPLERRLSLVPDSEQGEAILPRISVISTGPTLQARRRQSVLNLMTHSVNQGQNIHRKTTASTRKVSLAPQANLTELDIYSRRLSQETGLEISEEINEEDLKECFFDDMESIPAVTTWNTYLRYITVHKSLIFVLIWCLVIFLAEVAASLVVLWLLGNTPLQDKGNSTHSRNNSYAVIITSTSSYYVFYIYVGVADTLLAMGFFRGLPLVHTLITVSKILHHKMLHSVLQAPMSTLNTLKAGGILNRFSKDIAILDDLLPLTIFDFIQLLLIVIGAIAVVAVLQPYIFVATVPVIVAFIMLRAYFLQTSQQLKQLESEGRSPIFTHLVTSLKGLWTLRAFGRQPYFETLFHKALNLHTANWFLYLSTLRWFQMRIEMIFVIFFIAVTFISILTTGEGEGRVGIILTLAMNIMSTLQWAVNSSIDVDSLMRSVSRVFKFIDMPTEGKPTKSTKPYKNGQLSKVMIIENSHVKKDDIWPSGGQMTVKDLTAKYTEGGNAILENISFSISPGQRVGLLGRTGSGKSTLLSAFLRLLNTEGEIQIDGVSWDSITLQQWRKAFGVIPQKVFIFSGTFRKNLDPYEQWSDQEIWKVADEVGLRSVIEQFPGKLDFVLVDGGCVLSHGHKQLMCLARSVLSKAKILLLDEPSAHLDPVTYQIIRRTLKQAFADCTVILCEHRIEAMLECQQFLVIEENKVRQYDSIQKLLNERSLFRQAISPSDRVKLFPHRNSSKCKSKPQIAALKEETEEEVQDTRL

Below, each entry is followed by its recorded EC50 result.
MOLECULE | EC50
COc1ccc(C2=CCOCC2)c2c1CCCC2C(=O)NS(=O)(=O)c1cccc2ccccc12 (centres unmarked) [II-130] | < 3 µM
Cc1ccccc1S(=O)(=O)NC(=O)C1CCc2c(-c3ccc(F)nc3)cccc21 (centres unmarked) [III-89] | 3 to 10 µM

Value lookup for EC50; key = COc1ccc(Br)c2c1C(C(=O)NS(=O)(=O)c1cccc3c(OC)cccc13)CC2 (centres unmarked) [II-133]
3 to 10 µM

Value lookup for EC50; key = COc1ccc(C2CCC2)c2c1C(C(=O)NS(=O)(=O)c1cccc3ncccc13)CC2 (centres unmarked) [Example I-77]
< 3 µM

Value lookup for EC50; key = O=C(NS(=O)(=O)c1cccc2ccccc12)C1CCCc2cccc(Cl)c21 (centres unmarked) [Example I-2]
< 3 µM

Value lookup for EC50; key = COc1cccc2c1CCC2C(=O)NS(=O)(=O)c1ccc(Cl)cc1 (centres unmarked) [III-32]
≥ 10 µM

Value lookup for EC50; key = COc1cccc2c1CCC2C(=O)NS(=O)(=O)c1ccccc1F (centres unmarked) [II-38]
3 to 10 µM

Value lookup for EC50; key = COC(=O)c1ccc(OC)c2c1CCC2C(=O)NS(=O)(=O)c1cccc2ccccc12 (centres unmarked) [II-134]
< 3 µM

Value lookup for EC50; key = CCc1ccccc1S(=O)(=O)NC(=O)C1CCc2c(OC)cccc21 (centres unmarked) [II-24]
3 to 10 µM

Value lookup for EC50; key = COc1ccc(C2CCC2)c2c1CCC[C@@H]2C(=O)NS(=O)(=O)c1cccc2ccccc12 [Example I-60]
< 3 µM

Value lookup for EC50; key = CCC1(C(=O)NS(=O)(=O)c2cccc3c(Br)cccc23)CCc2c(Cl)cccc21 (centres unmarked) [II-78]
< 3 µM

Value lookup for EC50; key = COc1cccc2c1CCC2C(=O)NS(=O)(=O)c1ccc(S(C)(=O)=O)cc1 (centres unmarked) [III-26]
≥ 10 µM

Value lookup for EC50; key = COc1cccc2c1CCC2C(=O)NS(=O)(=O)c1ccc(O)c([N+](=O)[O-])c1 (centres unmarked) [III-63]
≥ 10 µM

Value lookup for EC50; key = CCC1(C(=O)NS(=O)(=O)c2cccc3c(Cl)cccc23)CCc2c(Cl)cccc21 (centres unmarked) [Example I-39]
< 3 µM

Value lookup for EC50; key = Cc1ccccc1S(=O)(=O)NC(=O)[C@H]1CCCc2ccccc21 [II-14]
3 to 10 µM

###

Each record here notes measured pEC50.
molecular target: F508delCFTR (Homo sapiens, UniProt P13569, DEL508-508); construct: expressed in transfected cells; host or cells: CFBE41o- human lung-derived epithelial cells (CFBE41o-F508delCFTR-HRP), doxycycline-inducible; assay: Cell Surface Expression-Horse Radish Peroxidase (CSE-HRP) assay, test compound with co-corrector; type: cell-based; conditions: with 2 μM co-corrector
pEC50: −log10 of the molar value.

Below, each entry is followed by its recorded pEC50 result.
MOLECULE | OBSERVED
COc1cccc2c1CCC2C(=O)NS(=O)(=O)c1ccc(C#N)cc1 (centres unmarked) | ≤ 5.00
COc1cccc2c1CCC2C(=O)NS(=O)(=O)c1ccccn1 (centres unmarked) | ≤ 5.00
COc1ccc(C)c2c1CC[C@@H]2C(=O)NS(=O)(=O)c1cccc2ccccc12 | > 5.52

Value lookup for pEC50; key = COc1ccc(C2CCC2)c2c1C(C(=O)NS(=O)(=O)c1cccc3cnn(C)c13)C2 (centres unmarked)
> 5.52

Value lookup for pEC50; key = COc1cccc2c1[C@@H](C(=O)NS(=O)(=O)c1cccc3ncccc13)CC2(C)C
> 5.52

Value lookup for pEC50; key = COc1ccc(-c2cccc3c2OC(F)(F)O3)c2c1CCCC2C(=O)NS(=O)(=O)c1cccc2ccccc12 (centres unmarked)
> 5.52

Value lookup for pEC50; key = COc1ccc(C2CCC2)c2c1[C@@H](C(=O)NS(=O)(=O)c1cccc3ncccc13)C2 (single isomer, unassigned)
> 5.52

Value lookup for pEC50; key = CCOC(=O)COc1ccc(Br)c2c1CCCC2C(=O)NS(=O)(=O)c1cccc2ccccc12 (centres unmarked)
> 5.52

Value lookup for pEC50; key = COc1ccc2c(c1OC)CCC2C(=O)NS(=O)(=O)c1ccccc1C (centres unmarked)
≤ 5.00

Value lookup for pEC50; key = Cc1ccccc1S(=O)(=O)NC(=O)C1CCc2c(Cl)cccc21 (centres unmarked)
5.00 to 5.52

Value lookup for pEC50; key = COc1ccc2c(c1OC)CCCC2C(=O)NS(=O)(=O)c1ccccc1C (centres unmarked)
5.00 to 5.52

Value lookup for pEC50; key = CCOc1ccc2nc(S(=O)(=O)NC(=O)C3CCc4c(OC)cccc43)sc2c1 (centres unmarked)
≤ 5.00

Value lookup for pEC50; key = COc1ncc(C2CCC2)c2c1[C@@H](C(=O)NS(=O)(=O)c1cccc3ccccc13)CCC2
5.00 to 5.52

###

molecular target: F508delCFTR (Homo sapiens, UniProt P13569, DEL508-508); construct: expressed in transfected cells; host or cells: CFBE41o- human lung-derived epithelial cells (CFBE41o-F508delCFTR-HRP), doxycycline-inducible; assay: Cell Surface Expression-Horse Radish Peroxidase (CSE-HRP) assay, test compound with co-corrector; assay type: cell-based; details: with 2 μM co-corrector
METRIC_NAME: EC50

Below, each entry is followed by its recorded EC50 result.
COMPOUND | TARGET_OR_TEST_SYSTEM | EC50
O=C(NS(=O)(=O)c1cccc2ccccc12)C1CCCc2c(OC3COC3)ccc(Br)c21 (centres unmarked) | F508delCFTR (Homo sapiens, UniProt P13569, DEL508-508) | < 3 µM
COc1ncc(Cl)c2c1C(C(=O)NS(=O)(=O)c1cccc3ccccc13)CC2 (centres unmarked) | F508delCFTR (Homo sapiens, UniProt P13569, DEL508-508) | 3 to 10 µM
O=C(NS(=O)(=O)c1cccc2ccccc12)C1CCc2ccccc21 (centres unmarked) | F508delCFTR (Homo sapiens, UniProt P13569, DEL508-508) | < 3 µM
CC(C)Oc1ccc(Br)c2c1CCCC2C(=O)NS(=O)(=O)c1cccc2ccccc12 (centres unmarked) | F508delCFTR (Homo sapiens, UniProt P13569, DEL508-508) | < 3 µM
CC[C@@]1(C(=O)NS(=O)(=O)c2cccc3ccccc23)CCc2c(Cl)cccc21 | F508delCFTR (Homo sapiens, UniProt P13569, DEL508-508) | < 3 µM
COc1cccc2c1CCC2C(=O)NS(=O)(=O)c1ccccc1C(F)(F)F (centres unmarked) | F508delCFTR (Homo sapiens, UniProt P13569, DEL508-508) | 3 to 10 µM

Value lookup for EC50; key = CCCCCC(=O)c1ccc(S(=O)(=O)NC(=O)C2CCc3c(OC)cccc32)cc1 (centres unmarked)
≥ 10 µM

Value lookup for EC50; key = COc1ccc(C2CCC2)c2c1[C@@H](C(=O)NS(=O)(=O)c1cccc3nc(C)ccc13)CC2
< 3 µM

Value lookup for EC50; key = COc1ccc(-c2ccc(C)cc2F)c2c1CCCC2C(=O)NS(=O)(=O)c1cccc2ccccc12 (centres unmarked)
< 3 µM

Value lookup for EC50; key = Cc1ccccc1S(=O)(=O)NC(=O)[C@H]1CCc2c(Cl)cccc21 (single isomer, unassigned)
< 3 µM

Value lookup for EC50; key = COc1cccc2c1CCC2C(=O)NS(=O)(=O)c1cccc(Cl)c1F (centres unmarked)
≥ 10 µM

Value lookup for EC50; key = CCC1(C(=O)NS(=O)(=O)c2ccccc2OC)CCc2c(Cl)cccc21 (centres unmarked)
≥ 10 µM

Value lookup for EC50; key = CCC1(C(=O)NS(=O)(=O)c2cccc3c2OC(F)(F)O3)CCc2c(Cl)cccc21 (centres unmarked)
< 3 µM

Value lookup for EC50; key = COc1cccc2c1CCC2C(=O)NS(=O)(=O)c1cc([N+](=O)[O-])ccc1C (centres unmarked)
≥ 10 µM

Value lookup for EC50; key = COc1ccc(Cl)c2c1[C@H](C(=O)NS(=O)(=O)c1cccc3ccccc13)CC2
< 3 µM

Value lookup for EC50; key = CCC1(C(=O)NS(=O)(=O)c2cccc3c2CCCC3)CCc2c(Cl)cccc21 (centres unmarked)
< 3 µM

Value lookup for EC50; key = COc1ccc(C2CCC2)c2c1[C@@H](C(=O)NS(=O)(=O)c1cccc3ncn(C)c13)CC2
< 3 µM
